ASSAYED TARGET: anti-FXIa antibody 076D-M007-H04-CDRL3-N110D
ASSAY: ELISA, 076D-M007-H04-CDRL3-N110D coated at 1 µg/ml, anti-human lambda light chain-peroxidase detection
pEC50 by entry:
The quantity pEC50 is defined as the negative base-10 logarithm of the molar concentration.

binder="TPP-8243 (antibody, human IgG1, lambda, V domains shown) VH: EVQLLESGGGLVQPGGSLRLSCAASGFTFSNYGIHWVRQAPGKGLEWVSAIGTGGDTYYADSVMGRFTISRDNSKNTLYLQMNSLRAEDTAVYYCARDRGYYDILTGLYDYWGQGTLVTVSS VL: QSVLTQPPSASGTPGQRVTISCSGSSSNIGNNAVNWYQQLPGTAPKLLIYGNYHRPSGVPDRFSGSKSGTSASLAISGLRSEDEADYYCSSYAGSNNWVFGGGTKLTVLG" val=9.59

// next entry
Looking up TPP-8238 (antibody, human IgG1, lambda, V domains shown) VH: EVQLLESGGGLVQPGGSLRLSCAASGFTFSSYSMNWVRQAPGKGLEWVASISGSGANTYFADTVKGRFTISRDNSKNTLYLQMNSLRAEDTAMYYCARHGQVRLNYGSPTTVYNWFDRWGQGTLVTVSS VL: QSVLTQPPSASGTPGQRVTISCTGSSSNIGAGYDVHWYQQLPGTAPKLLIYGNSNRPSGVPDRFSGSKSGTSASLAISGLRSEDEADYYCAAWHDSLNGWVFGGGTKLTVLG , I found its pEC50 recorded as 9.31
